tgt: Prostaglandin G/H synthase 1 (Ovis aries)
Sequence (P05979 whole entry): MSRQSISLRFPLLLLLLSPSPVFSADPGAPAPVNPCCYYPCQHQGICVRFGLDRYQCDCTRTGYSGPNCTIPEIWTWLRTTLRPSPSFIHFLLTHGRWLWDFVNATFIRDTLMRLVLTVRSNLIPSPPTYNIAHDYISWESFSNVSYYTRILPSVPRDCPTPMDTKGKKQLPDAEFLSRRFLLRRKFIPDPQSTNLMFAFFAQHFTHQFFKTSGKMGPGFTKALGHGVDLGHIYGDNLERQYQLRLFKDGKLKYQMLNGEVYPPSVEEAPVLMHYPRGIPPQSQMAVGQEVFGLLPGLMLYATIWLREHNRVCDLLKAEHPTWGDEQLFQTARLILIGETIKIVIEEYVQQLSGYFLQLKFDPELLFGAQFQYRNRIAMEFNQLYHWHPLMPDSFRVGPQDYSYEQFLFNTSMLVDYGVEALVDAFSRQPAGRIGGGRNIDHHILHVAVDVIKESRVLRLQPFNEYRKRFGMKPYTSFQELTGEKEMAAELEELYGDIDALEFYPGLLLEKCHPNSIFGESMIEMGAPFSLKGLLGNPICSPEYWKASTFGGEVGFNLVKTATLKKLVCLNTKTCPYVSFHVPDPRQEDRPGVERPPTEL
readout kind: IC50 (µM)

I = CS(=O)(=O)c1ccc(-c2c(-c3ccccc3)cc(-c3ccc(N)cc3)oc2=O)cc1
II = CS(=O)(=O)c1ccc(-c2cc(-c3ccccc3)oc(=O)c2-c2cccnc2)cc1
III = COc1ccc(-c2cc(-c3cccnc3)c(-c3ccc(S(C)(=O)=O)cc3)c(=O)o2)cc1
Reorder the records above by IC50 so that values decrease. Answer by writing out the labels in the requested order. I, II, III
